B1: ISL2 (parent)
chain: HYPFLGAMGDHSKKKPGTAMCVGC

- Variants of: B1
- test-description: protein stability index of a GFP-peptide fusion (GPS, HEK-293T) (PSI 1-6); higher = more stable;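 note: lentivirally expressed fusions sorted by FACS into six bins by GFP to DsRed ratio, PSI derived from sequencing read proportions per bin multiplied by bin number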
- condition-summary: c terminus: a fixed tail appended
Would you mind labelling by protein stability index? At or over 3 is Criterion met, under is Criterion not met.

Reference set (10 entries):
variant_notation=V22D class="Criterion met"
variant_notation=A19H class="Criterion met"
variant_notation=M8C class="Criterion met"
variant_notation=K13F class="Criterion not met"
variant_notation=G6M class="Criterion not met"
variant_notation=A19P class="Criterion not met"
variant_notation=H11D class="Criterion met"
variant_notation=D10I class="Criterion not met"
variant_notation=D10T class="Criterion not met"
variant_notation=K15M class="Criterion not met"

In plain terms: is recorded protein stability index at least 3 for A7Y ?
Criterion not met

In plain terms: is recorded protein stability index at least 3 for H11G ?
Criterion not met

In plain terms: is recorded protein stability index at least 3 for G9N ?
Criterion not met

In plain terms: is recorded protein stability index at least 3 for K14N ?
Criterion not met

In plain terms: is recorded protein stability index at least 3 for M20T ?
Criterion met

In plain terms: is recorded protein stability index at least 3 for D10S ?
Criterion not met

In plain terms: is recorded protein stability index at least 3 for K13W ?
Criterion not met

In plain terms: is recorded protein stability index at least 3 for L5W ?
Criterion not met

In plain terms: is recorded protein stability index at least 3 for A19E ?
Criterion met

In plain terms: is recorded protein stability index at least 3 for D10H ?
Criterion not met
